Hello, the source for this data is PubChem BioAssay AID588342, in case you need it.

# Target: Luciferin 4-monooxygenase (Photinus pyralis) (UniProt P08659)
# Sequence (P08659 whole entry, looked up): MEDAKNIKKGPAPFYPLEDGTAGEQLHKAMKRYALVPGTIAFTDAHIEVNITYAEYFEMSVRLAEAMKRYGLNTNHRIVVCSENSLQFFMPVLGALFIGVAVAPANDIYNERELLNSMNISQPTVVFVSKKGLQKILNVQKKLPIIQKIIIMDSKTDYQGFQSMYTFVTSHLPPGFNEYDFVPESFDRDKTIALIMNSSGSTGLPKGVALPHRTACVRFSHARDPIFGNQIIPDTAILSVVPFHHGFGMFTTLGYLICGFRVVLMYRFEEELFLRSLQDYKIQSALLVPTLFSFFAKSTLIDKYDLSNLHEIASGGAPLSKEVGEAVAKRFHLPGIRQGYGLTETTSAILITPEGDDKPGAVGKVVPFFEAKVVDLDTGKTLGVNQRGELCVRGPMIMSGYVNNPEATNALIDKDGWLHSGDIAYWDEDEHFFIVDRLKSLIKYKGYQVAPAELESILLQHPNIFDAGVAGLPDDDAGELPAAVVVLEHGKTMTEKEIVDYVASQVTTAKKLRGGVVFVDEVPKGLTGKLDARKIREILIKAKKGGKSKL
# Protocol: qHTS profiling assay for firefly luciferase inhibitor/activator using purifed enzyme and Km concentrations of substrates (counterscreen for miR-21 project); note: nearly all actives have a fitted effect of over 55% in size
# Condition context: purified FLuc, luminescence inhibition; series mostly up to 57.5 µM
About 25,000 (6.9%) of roughly 360,000 compounds were called active. Roughly 9% stayed inconclusive and do not appear here. Calls come from the whole dose curve; as a rule, active = well fitted inhibition curve with a large enough effect; inconclusive = small, poorly fitted or top-dose-only effect; inactive = flat fitted curve, though single readings scatter. The sample as a whole holds a higher share of actives than the screen did.
Possible outcomes: 1 (yes) for active, 0 (no) for inactive

compound=COC(=O)CNS(=O)(=O)c1ccc(OC)cc1 target="Luciferin 4-monooxygenase (Photinus pyralis) (UniProt P08659)" label_value="0 (no)"
compound=C/C(N)=C(/C#N)C(=O)COC(=O)CNS(=O)(=O)c1ccc(C)cc1 target="Luciferin 4-monooxygenase (Photinus pyralis) (UniProt P08659)" label_value="0 (no)"
compound=Cc1ccc2c(N)c(C(=O)c3ccccc3)sc2n1 target="Luciferin 4-monooxygenase (Photinus pyralis) (UniProt P08659)" label_value="1 (yes)"
compound=COc1ccccc1N1CCN(C(=O)C2CCN(S(=O)(=O)c3c(C)noc3/C=C/c3ccc(C)cc3)CC2)CC1 target="Luciferin 4-monooxygenase (Photinus pyralis) (UniProt P08659)" label_value="0 (no)"
compound=c1ccc(CN2CCC(N=C3NN=C(c4ccc5c(c4)OCCO5)CS3)CC2)cc1 target="Luciferin 4-monooxygenase (Photinus pyralis) (UniProt P08659)" label_value="0 (no)"
compound=CC(=O)NCC(=O)N(Cc1ccco1)C1(C(=O)NC2CCCC2)CCCCC1 target="Luciferin 4-monooxygenase (Photinus pyralis) (UniProt P08659)" label_value="0 (no)"
compound=O=C(NNC(=O)c1ccc(-n2cncn2)c([N+](=O)[O-])c1)c1ccccc1 target="Luciferin 4-monooxygenase (Photinus pyralis) (UniProt P08659)" label_value="0 (no)"
compound="CCCCc1ccc(NC(=O)CN2C(=O)NC(Cc3ccccc3)C2=O)cc1 (stereo not given)" target="Luciferin 4-monooxygenase (Photinus pyralis) (UniProt P08659)" label_value="0 (no)"
compound=COC(=O)CNS(=O)(=O)c1ccc(Cc2ccc(S(=O)(=O)NCC(=O)OC)cc2)cc1 target="Luciferin 4-monooxygenase (Photinus pyralis) (UniProt P08659)" label_value="1 (yes)"
compound=O=C(CSc1oc(-c2ccco2)nc1S(=O)(=O)c1ccc(Cl)cc1)c1ccccc1 target="Luciferin 4-monooxygenase (Photinus pyralis) (UniProt P08659)" label_value="0 (no)"

----------
# Target: Luciferin 4-monooxygenase (Photinus pyralis) (UniProt P08659)
# Protocol: qHTS profiling assay for firefly luciferase inhibitor/activator using purifed enzyme and Km concentrations of substrates (counterscreen for miR-21 project); note: nearly all actives have a fitted effect of over 55% in size
# Condition context: purified FLuc, luminescence inhibition; series mostly up to 57.5 µM
About 25,000 (6.9%) of roughly 360,000 compounds were called active. Another 9% or so got no clear call; they are omitted. The call rests on the fitted dose curve; in most records, active means well fitted inhibition curve with a large enough effect; inconclusive means small, poorly fitted or top-dose-only effect; inactive means flat fitted curve, though single readings scatter. The entries come from a sample that favours actives as a whole.
Possible outcomes: True = active, False = inactive

compound=CCCN1CCc2nc(N3CCN(C)CC3)ncc2C1 label_value=False
compound="CCOc1ccc(N2C(=O)CC(N(CCc3ccc(OC)c(OC)c3)C(=S)Nc3ccccc3)C2=O)cc1 (configuration not stated)" label_value=False
compound=COc1ccc(Cn2cccc(NC(=O)Nc3ccc(C#N)cc3)c2=O)cc1 label_value=False
compound=Cc1cc(C)n(CC(=O)Nc2ccc([N+](=O)[O-])cc2)n1 label_value=False
compound=CS(=O)(=O)N1CCN(C(=O)Cc2ccccc2)CC1 label_value=False
compound=CC(=O)O[C@H]1c2ccccc2-c2ccccc2[C@@H]1OC(C)=O label_value=False
compound=COc1cccc(CNC(=O)c2cc(=O)[nH]c3ccc(S(=O)(=O)N4CCCCC4)cc23)c1 label_value=False
compound=O=C1C=C(c2cc(C(F)(F)F)cc(C(F)(F)F)c2)C[C@@H](c2ccc3c(c2)OCO3)C1 label_value=False
compound=Cc1cc(C)cc(NC(=O)Cn2nc(N3CCN(c4ccccc4)CC3)ccc2=O)c1 label_value=False
compound=Cc1c(Cl)cccc1NC(=O)Cn1cc(C(=O)c2cccs2)c2ccccc21 label_value=False
compound=O=S(=O)(c1ccc(Sc2nnc3ccccn23)nc1)N1CCOCC1 label_value=False
compound=Cn1c(=O)cc(OCC(=O)N2CCN(c3ccccc3)CC2)c2ccccc21 label_value=False
compound="CC(=O)c1ccc(N2CCN(C3C(=O)c4ccccc4N3C(C)=O)CC2)cc1 (configuration not stated)" label_value=False
compound="COc1ccc(C2(C)ON(c3ccccc3C(F)(F)F)C2=O)cc1 (configuration not stated)" label_value=False
compound=CN(C)S(=O)(=O)c1cccc(NC(=O)COC(=O)C2(c3ccccc3F)CCCC2)c1 label_value=False
compound=Cc1csc(=O)n1CCC(=O)OCC(=O)NNC(=O)c1ccc(Br)cc1 label_value=False
compound=COc1ccc2c(c1)CCc1cn3ncc(C#N)c3nc1-2 label_value=False
compound=COc1cc(/C=N/O)ccc1OCc1ccc([N+](=O)[O-])cc1 label_value=True
compound=CC(=O)Nc1ccc(Oc2ccc3c(c2)C(=O)NC3=O)cc1 label_value=False
compound="CN(C)C(=O)COC(=O)c1cccc(S(=O)(=O)N2CC3(C)CC2CC(C)(C)C3)c1 (configuration not stated)" label_value=False
compound=O=C(Nc1cccn(Cc2ccccc2Cl)c1=O)NC1CCCCC1 label_value=True
compound=CS(=O)(=O)N1CCc2nc(-c3ccccc3)sc2C1 label_value=True
